target: Thyroid hormone receptor beta (Homo sapiens); test: qHTS assay for small molecule agonists of thyroid hormone receptor beta signaling (AID 588545); details: TR-UAS-bla GripTite HEK 293, beta-lactamase ratio, agonist mode, 18 h; series mostly up to 76.7 µM;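 note: 0% = DMSO only and 100% = 10 nM T3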
Records with an inconclusive call do not appear. Activity calls are given as the source filed them. Calls come from the whole dose curve.

{"structure_smiles_string": "CCCCCCCCCCCCCCCCCC#N", "outcome": "inactive"}
{"structure_smiles_string": "CC(=O)Nc1ccc(N=Nc2cc(C)ccc2O)cc1", "outcome": "inactive"}
{"structure_smiles_string": "CCCCCCC(C)(C)S", "outcome": "inactive"}

----------
target: Cytochrome P450 3A4 (Homo sapiens) (UniProt P08684); assay: qHTS Assay for Activators of Cytochrome P450 3A4 (AID 885); settings: recombinant CYP3A4, Luciferin-PPXE luminescence, 60 min; series mostly up to 57.1 µM; note: nearly all actives have a fitted effect of over 65% in size
Sequence (P08684 whole entry, looked up): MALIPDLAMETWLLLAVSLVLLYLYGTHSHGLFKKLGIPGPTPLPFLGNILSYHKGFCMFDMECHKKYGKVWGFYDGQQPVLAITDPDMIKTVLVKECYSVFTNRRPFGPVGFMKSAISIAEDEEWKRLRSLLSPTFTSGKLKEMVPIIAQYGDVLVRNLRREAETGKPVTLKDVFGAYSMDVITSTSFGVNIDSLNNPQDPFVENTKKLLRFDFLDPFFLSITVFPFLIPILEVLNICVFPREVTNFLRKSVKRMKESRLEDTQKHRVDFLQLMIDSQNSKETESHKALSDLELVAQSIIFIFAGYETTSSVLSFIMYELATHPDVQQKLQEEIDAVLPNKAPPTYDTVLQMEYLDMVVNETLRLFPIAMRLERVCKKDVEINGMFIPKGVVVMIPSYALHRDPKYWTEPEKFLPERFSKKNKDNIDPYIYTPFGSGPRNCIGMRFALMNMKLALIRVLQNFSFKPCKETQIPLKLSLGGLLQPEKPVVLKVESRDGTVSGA
Calls of active or inactive are those of the source. Calls come from the whole dose curve; as a rule, active = well fitted activation curve with a large enough effect; inconclusive = small, poorly fitted or top-dose-only effect; inactive = no such curve, though single readings can be large or run the other way.
measured_quantity: activity change, positive = activation

Below, 7 molecules whose answers are already recorded.
{"molecule": "CCC1=C(OC(=O)N(CC)CC)N2C(=O)OC(=NCC3CC3)[C@]2(Cc2ccccc2)[C@H]2C1=CC[C@H]1C(=O)N(CC)C(=O)[C@H]12", "measured_quantity": "activity change, positive = activation", "measured_result": "inactive"}
{"molecule": "COC(=O)c1ccc(C(NC(=O)OCc2ccccc2)/C(C)=C/[C@@H](C)C(=O)NCc2nc3ccccc3s2)cc1 (stereo partly drawn)", "measured_quantity": "activity change, positive = activation", "measured_result": "inactive"}
{"molecule": "CCC(=O)CC(NC(=O)OC)c1ccccc1 (stereo not drawn)", "measured_quantity": "activity change, positive = activation", "measured_result": "-34.8% [at 11.4 µM] (inactive)"}
{"molecule": "COC(=O)C1(C)C=CC2(CCCCC2)N1C(C)=O (stereo not drawn)", "measured_quantity": "activity change, positive = activation", "measured_result": "inactive"}
{"molecule": "CC(C)=NOCc1cccc(-c2cc(-c3ccccc3)no2)c1", "measured_quantity": "activity change, positive = activation", "measured_result": "-40.1% [at 11.4 µM] (inactive)"}
{"molecule": "Cc1ccc(S(=O)(=O)N[C@@H]2COC(=O)C/C=C\\[C@H](C)COC(=O)N[C@@H](C)C(=O)C/C=C\\[C@H]2C)cc1", "measured_quantity": "activity change, positive = activation", "measured_result": "-86.3% [at 11.4 µM] (inactive)"}
{"molecule": "COC(=O)[C@@H]1C[C@H]2CC[C@H](O)C[C@H]2N1Cc1ccc(C)s1", "measured_quantity": "activity change, positive = activation", "measured_result": "inactive"}

For record `Cn1c(N)c(C(=O)COC(=O)c2cc(C3CC3)nc3ccccc23)c(=O)n(Cc2ccccc2)c1=O` the listed activity change, positive = activation is inactive
